Provide the reported activation of each item.
target: Troponin I, cardiac muscle (Homo sapiens) + Troponin T, cardiac muscle (Homo sapiens) + Troponin C, slow skeletal and cardiac muscles (Homo sapiens) (UniProt P19429+P45379+P63316); assay: calcium sensitizers of cardiac thin filaments – biochemical, IANBD-TnC fluorescence, EC20 calcium, primary screen (AID 493008); details: IANBD-labeled TnC RTF fluorescence at EC20 calcium; at 7.2 µM; hits give high values; 0% EC20 calcium, 100% full calcium;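 also: rise in fluorescence read as greater calcium sensitivity of cardiac thin filaments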
The whole screen tested about 340,000 compounds, of which about 800 (0.24%) were called active. Only a selection was taken, and actives are over-represented in it overall.
Answers are plain numbers, in %.

Illustrative cases are given below, each with its answer.
[
  {
    "Compound": "O=C1Nc2ccccc2/C1=C/c1ccnc2ccccc12",
    "activation [%]": 3.84
  },
  {
    "Compound": "COc1ccc(OC)c(NC(=O)c2ccc3c(c2)C(=O)N(c2ccc(OC(C)=O)cc2)C3=O)c1",
    "activation [%]": 1.02
  },
  {
    "Compound": "COc1ccc(C23NCCN2C(=O)c2ccccc23)cc1 (stereo unspecified)",
    "activation [%]": -1.61
  },
  {
    "Compound": "CCc1ccc(CN(C)C(=O)CCc2nnc(-c3ccc(-c4ccccc4)cc3)o2)nc1",
    "activation [%]": -1.69
  }
]

Record activation for all entries; do not skip any.
1. CCN(CC)c1ccc(C(=O)Nn2c(C)nc3ccccc3c2=O)cc1
2. CCOC(=O)N1CCC(c2cc(=O)n(-c3ccccc3)[nH]2)CC1
3. CC1(C)CN(c2ccc(-c3ccnc4ncnn34)cc2)C1=O
4. Cc1ccc2oc(=O)ccc2c1
5. Cc1cc(OC(C)C(=O)NC2CC(C)(C)NC(C)(C)C2)c2c(C)cc(=O)oc2c1 (stereo unspecified)
6. CCCCCCc1cc2cc(-c3nnc(-c4ccccc4)o3)c(=O)oc2cc1O
7. CCn1cc(C(=O)N[C@@H](C)C(=O)NCCO)c(=O)c2cc3c(cc21)OCO3

// result
8.65
2.7
2.76
-3.77
-6.45
76.8
0.57

---

molecular target: Troponin I, cardiac muscle (Homo sapiens) + Troponin T, cardiac muscle (Homo sapiens) + Troponin C, slow skeletal and cardiac muscles (Homo sapiens) (UniProt P19429+P45379+P63316); test: calcium sensitizers of cardiac thin filaments – biochemical, IANBD-TnC fluorescence, EC20 calcium, primary screen (AID 493008); settings: IANBD-labeled TnC RTF fluorescence at EC20 calcium; at 7.2 µM; hits give high values; 0% EC20 calcium, 100% full calcium;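 also: rise in fluorescence read as greater calcium sensitivity of cardiac thin filaments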
About 800 (0.24%) of roughly 340,000 compounds were called active. The sample as a whole holds a higher share of actives than the screen did.
Measured attribute: activation (%)
Answers are plain numbers, in %.

Worked cases, answers included:
[
  {
    "Compound": "Cc1[nH]c(N)nc(=S)c1CCCNc1ccccc1",
    "Unit text": "%",
    "activation": -2.1
  },
  {
    "Compound": "CN(C)C(CNC(=O)c1ccc(S(=O)(=O)NCc2ccco2)cc1)c1ccccc1 (stereo not drawn)",
    "Unit text": "%",
    "activation": -0.95
  },
  {
    "Compound": "Cc1ccccc1OCCC(=O)OCC(=O)NC(C)c1ccccc1 (stereo not drawn)",
    "Unit text": "%",
    "activation": 1.21
  },
  {
    "Compound": "CN(C)S(=O)(=O)c1cc(NC(=O)CN2C(=O)NC3(CCCc4ccccc43)C2=O)ccc1Cl (stereo not drawn)",
    "Unit text": "%",
    "activation": 5.19
  },
  {
    "Compound": "NC(=O)c1ccc(NC(=O)COC(=O)c2c3c(nc4ccccc24)/C(=C\\c2ccc4c(c2)OCO4)CCC3)cc1",
    "Unit text": "%",
    "activation": 514
  }
]

Give activation for each of the items listed below.
1. C=CCC[C@@H](Cc1ccc(F)cc1)C(=O)OC[C@H](Cc1c[nH]c2ccccc12)NC(=O)[C@@H](CC=C)CC(=O)N(CCO)Cc1ccccc1
2. CC1=C(C(N)=O)C(c2ccc(Br)cc2)n2ncnc2N1 (stereo not drawn)
3. COc1cc(C(=O)N2C(=O)c3cccc(N)c3C2=O)cc(OC)c1OC
4. O=C(NC(Cc1c[nH]c2ccccc12)C(=O)N/N=C/c1ccc(Br)cc1)c1cccs1 (stereo not drawn)
5. COCCNC(=O)c1onc(CSc2cccc(C)c2)c1C(=O)O
6. O=C(c1cc2sccc2n1Cc1ccc(F)cc1)N1CCc2ccccc21
7. O=S(=O)(Cc1nnnn1-c1ccc(Br)cc1)c1ccc(F)cc1
8. Cc1ccnc(N2CCN(C(=O)CSc3nc4ccccc4nc3N3CCCCC3)CC2)c1

// result
[-0.54, -0.09, -5.72, -5.25, 2.19, -0.47, 1.13, 0.05]

---

target: Troponin I, cardiac muscle (Homo sapiens) + Troponin T, cardiac muscle (Homo sapiens) + Troponin C, slow skeletal and cardiac muscles (Homo sapiens) (UniProt P19429+P45379+P63316); test: calcium sensitizers of cardiac thin filaments – biochemical, IANBD-TnC fluorescence, EC20 calcium, primary screen (AID 493008); conditions: IANBD-labeled TnC RTF fluorescence at EC20 calcium; at 7.2 µM; hits give high values; 0% EC20 calcium, 100% full calcium;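 also: rise in fluorescence read as greater calcium sensitivity of cardiac thin filaments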
Among all 340,000 compounds or so, about 800 (0.24%) were called active. For the sample, actives were picked, then their nearest neighbours and some compounds at random.
For each record, write down the corresponding activation.
One number for each entry, in %.

Illustrative cases are given below, each with its answer.
[
  {
    "Molecule": "CCOC(=O)c1c(NC(=O)C2CC=CCC2C(=O)O)sc(C)c1CC (stereo not given)",
    "Unit text": "%",
    "activation": 1.94
  },
  {
    "Molecule": "CCOc1cc(-c2cc(-c3ccc(NC(C)=O)cc3)nc(N)c2C#N)ccc1O",
    "Unit text": "%",
    "activation": -2.6
  },
  {
    "Molecule": "COc1ccc(NC(C(=O)Nc2cccc(C(C)=O)c2)c2ccccc2)cc1 (stereo not given)",
    "Unit text": "%",
    "activation": 2.77
  },
  {
    "Molecule": "CC1(C)CC(=O)C/C(=N\\NC(=O)c2cccs2)C1",
    "Unit text": "%",
    "activation": 9.93
  },
  {
    "Molecule": "CCCCCNC(=O)C1c2ccccc2Oc2ccccc21",
    "Unit text": "%",
    "activation": 4.69
  }
]

The following molecules each have a reported value; give each one's activation.
1. CCCCC(CC)CNCc1cccn1CCN1CCOCC1 (stereo not given)
2. COc1ccc(-c2onc3ccc(C(C)=O)cc23)cc1
3. CCCNC(=O)C(=O)Nc1cc2c3c(c1)CCC(=O)N3CCC2
4. Cc1nn(-c2ncccn2)c2c1C(=O)CC(C)(C)C2Br (stereo not given)

// result
1. -0.42
2. 42.2
3. -3.33
4. 1.48

---

target: Troponin I, cardiac muscle (Homo sapiens) + Troponin T, cardiac muscle (Homo sapiens) + Troponin C, slow skeletal and cardiac muscles (Homo sapiens) (UniProt P19429+P45379+P63316); test: calcium sensitizers of cardiac thin filaments – biochemical, IANBD-TnC fluorescence, EC20 calcium, primary screen (AID 493008); conditions: IANBD-labeled TnC RTF fluorescence at EC20 calcium; at 7.2 µM; 0% EC20 calcium, 100% full calcium;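 also: rise in fluorescence read as greater calcium sensitivity of cardiac thin filaments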
The whole screen tested about 340,000 compounds, of which about 800 (0.24%) were called active.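 The calls were made as follows: active = activation above the mean over all tested compounds plus 3 SD (cut at about 30% in these data); inactive = the rest.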 The sample as a whole holds a higher share of actives than the screen did.
Pick one: active, inactive

[
  {
    "Compound": "C/C(=C/c1ccccc1)C(=O)N1CCN(c2ccccc2)CC1",
    "Category label": "inactive"
  },
  {
    "Compound": "COc1ccc(C2c3ccc(O)cc3Oc3ncn(CCCO)c(=N)c32)cc1OC (stereo not given)",
    "Category label": "active"
  },
  {
    "Compound": "CN(CCc1ccccc1)C(=O)c1cccc(NC(=O)Cc2cccc(NC(=O)C3CCCN(C(=O)CCc4ccccc4)C3)c2)c1 (stereo not given)",
    "Category label": "inactive"
  },
  {
    "Compound": "CCOc1ccc(N(CC(=O)NCCOc2ccccc2OC)S(=O)(=O)c2ccccc2)cc1",
    "Category label": "inactive"
  }
]

// query Kindly provide the recorded test outcome for the following compound: COc1ccc(CNCCCO)cc1OC
// result inactive

// query State the result this test recorded for C/C(N)=C(/C#N)C(=O)COC(=O)C1=NN(c2ccccc2)C(=O)CC1 .
// result inactive

---

molecular target: Troponin I, cardiac muscle (Homo sapiens) + Troponin T, cardiac muscle (Homo sapiens) + Troponin C, slow skeletal and cardiac muscles (Homo sapiens) (UniProt P19429+P45379+P63316); experiment: calcium sensitizers of cardiac thin filaments – biochemical, IANBD-TnC fluorescence, EC20 calcium, primary screen (AID 493008); details: IANBD-labeled TnC RTF fluorescence at EC20 calcium; at 7.2 µM; 0% EC20 calcium, 100% full calcium;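 also: rise in fluorescence read as greater calcium sensitivity of cardiac thin filaments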
Hit rate of the full screen: of about 340,000 compounds, about 800 (0.24%) were called active.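 The calls were made as follows: active = activation above the mean over all tested compounds plus 3 SD (cut at about 30% in these data); inactive = the rest.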 Many of the other results were omitted from the sample, so actives are more common in it than they were.
Outcome field: choose from active, inactive

Worked examples follow.
[
  {
    "Molecule": "Cc1ccccc1NC(=O)c1ccc(COc2ccc3c(C)cc(=O)oc3c2)cc1",
    "Category label": "inactive"
  },
  {
    "Molecule": "O=C(OCCOc1ccccc1Cl)c1cc(S(=O)(=O)N2CCCCC2)ccc1N1CCOCC1",
    "Category label": "inactive"
  },
  {
    "Molecule": "O=c1ccc(S(=O)(=O)N2CCCC2)cn1Cc1nc(-c2ccccc2)no1",
    "Category label": "inactive"
  },
  {
    "Molecule": "O=C(CCN1C(=O)[C@@H]2Cc3ccccc3CN2C1=O)NCCc1ccccc1",
    "Category label": "inactive"
  },
  {
    "Molecule": "COc1ccc(OC)c(Cc2cnc3nc(N)nc(N)c3c2C)c1",
    "Category label": "inactive"
  }
]

// query Call for entry COc1cccc(NS(=O)(=O)c2ccc3[nH]cc(C(=O)NCCCOC(C)C)c(=O)c3c2)c1 :
// result inactive

// query Which outcome was entered for the molecule CCOC(=O)c1ccc(N=C2SC(C(=O)NC)CC(=O)N2CCc2ccccc2)cc1 (stereo not given) in this test?
// result inactive

// query I would be grateful if you could indicate the recorded call for COc1ccc(N(C(=O)CNC(=O)c2ccco2)C(C(=O)NCC2CCCO2)c2ccccc2)cc1Cl (stereo not given) .
// result inactive

// query I'd appreciate the recorded outcome for NS(=O)(=O)c1ccc(N=Nc2c(O)[nH]c3ccc(Br)cc23)cc1 from this test.
// result inactive

// query What did the test return for CCOC(=O)c1cc2n(c1N)-c1ccccc1C2=O ?
// result active

// query Any idea what this test logged for Cc1ccc(/C=C2/SC(=S)N(CCC(=O)NCCCN3CCOCC3)C2=O)cc1 ?
// result inactive

// query Which result was noted for this molecule in the test: O=c1cc(N2CCCCC2)c(-c2ccccc2)nn1Cc1cccc(F)c1
// result inactive

// query Hello, I am checking results. What call was entered for Cc1ccccc1NC(=O)CCNS(=O)(=O)c1ccc2[nH]c(=O)oc2c1 ?
// result inactive

// query Record request — test call for CC1CCN(C(=O)Cn2nnnc2CN2CCOCC2)CC1
// result inactive

Data provenance is PubChem BioAssay AID493008.
